Biological target: T1, neuropilin-1 (NRP1) on HEK293 cells overexpressing NRP1 (UniProt O14786 22-923, limits assumed)
T1 construct: whole, on cells
Test: flow cytometry, HEK293-NRP1 vs HEK293
In this section we review reported 100 nM FACS (MFI Ratio) values for a set of binders.
Please state the value as a number alone, without comment.

Examples with their reported 100 nM FACS (MFI Ratio) follow.
[
  {
    "BINDER": "NRP1-31 (VHH) VHH: EVQLVESGGGLVQPGGSLRLSCAASGLTFRRYDMGWFRQAPGKERELVAIKFSGGSTRYADSVKGRFTISADNSKNTAYLQMNSLKPEDTAVYYCATSSGRVPAALNWGQGTLVTVSS",
    "100 nM FACS (MFI Ratio)": 5.7
  },
  {
    "BINDER": "NRP1-90 (VHH) VHH: EVQLVESGGGLVQPGGSLRLSCAASGGIFSINDMGWFRQAPGKEREFVARITSGGSTNYADSVKGRFTISADNSKNTAYLQMNSLKPEDTAVYYCAKADYYDSSDFDSWGQGTLVTVSS",
    "100 nM FACS (MFI Ratio)": 1
  },
  {
    "BINDER": "NRP1-278 (antibody, IgG2, V domains shown) VH: EVQLLESGGGLVQPGGSLRLSCAASGFTFRRYAMSWVRQAPGKGLEWVSAISGSGDRTYYADSVKGRFTISRDNSKNTLYLQMNSLRAEDTAVYYCARDRGLRYFDWSFDYWGQGTLVTVSS VL: DIQMTQSPSSLSASVGDRVTITCRTSQSISSYLNWYQQKPGKAPKLLIYAAAGLRGGVPSRFSGSGSGTDFTLTISSLQPEDFATYYCQQSFTTPWTFGGGTKVEIK",
    "100 nM FACS (MFI Ratio)": 3
  },
  {
    "BINDER": "NRP1-270 (antibody, IgG2, V domains shown) VH: EVQLLESGGGLVQPGGSLRLSCAASGFTFSIYAMGWVRQAPGKGLEWVSSISGRGGSIYYADSVKGRFTISRDNSKNTLYLQMNSLRAEDTAVYYCARSAGTFDYWGQGTLVTVSS VL: DIQMTQSPSSLSASVGDRVTITCRASQSIRSHLNWYQQKPGKAPKLLIYAASSVESGVPSRFSGSGSGTDFTLTISSLQPEDFATYYCQQSYSAPLTFGGGTKVEIK",
    "100 nM FACS (MFI Ratio)": 3
  },
  {
    "BINDER": "NRP1-274 (antibody, IgG2, V domains shown) VH: EVQLLESGGGLVQPGGSLRLSCAASGFTFSKYAMNWVRQAPGKGLEWVSTISGSGGSTSYADSVKGRFTISRDNSKNTLYLQMNSLRAEDTAVYYCARGQDIKRNVMRRGGRLNWFDPWGQGTLVTVSS VL: DIQMTQSPSSLSASVGDRVTITCRASQSIGSNLNWYQQKPGKAPKLLIYGATNLQSGVPSRFSGSGSGTDFTLTISSLQPEDFATYYCQQSYRTPLTFGGGTKVEIK",
    "100 nM FACS (MFI Ratio)": 1
  },
  {
    "BINDER": "NRP1-257 (antibody, IgG2, V domains shown) VH: EVQLLESGGGLVQPGGSLRLSCAASGFTFSRYGMSWVRQAPGKGLEWVSTISGSGGSTSYADSVKGRFTISRDNSKNTLYLQMNSLRAEDTAVYYCARASHVDIPRRAPKRRHSFDSWGQGTLVTVSS VL: DIQMTQSPSSLSASVGDRVTITCRASQTISNYVNWYQQKPGKAPKLLIYAASSLHAGVPSRFSGSGSGTDFTLTISSLQPEDFATYYCQQGYSTPLTFGGGTKVEIK",
    "100 nM FACS (MFI Ratio)": 0.9
  }
]

100 nM FACS (MFI Ratio) recorded for this binder, NRP1-69 (VHH) VHH: EVQLVESGGGLVQPGGSLRLSCAASGFNFNWYPMGWFRQAPGKEREWVGTINSGGSTSYADSVKGRFTISADNSKNTAYLQMNSLKPEDTAVYYCARLPPRGSYYYYYYGMDVWGQGTLVTVSS , is 8.2

Record summary for NRP1-14 (VHH) VHH: EVQLVESGGGLVQPGGSLRLSCAASGFTFRNFGMGWFRQAPGKEREFVSAISPGGVERYADSVKGRFTISADNSKNTAYLQMNSLKPEDTAVYYCATVGGYDYGYYYGMDVWGQGTLVTVSS : reported 100 nM FACS (MFI Ratio) = 15.4

For reference, reported 100 nM FACS (MFI Ratio) for NRP1-61 (VHH) VHH: EVQLVESGGGLVQPGGSLRLSCAASGRTFSRYAMGWFRQAPGKEREWVAGISWTGGITYYADSVKGRFTISADNSKNTAYLQMNSLKPEDTAVYYCAAYQRGWGDWGQGTLVTVSS stands at 0.9
